Molecular target: T1, Rab32 1-225 (Q85L), GTP hydrolysis-defective mutant, GST removed (UniProt Q13637 1-225, Q85L)
T1 construct: Rab32, residues 1-225; limits 1-225 are printed for the crystallised construct; also called Rab32(Q85L); Rab32Q85L
T1 sequence (looked up): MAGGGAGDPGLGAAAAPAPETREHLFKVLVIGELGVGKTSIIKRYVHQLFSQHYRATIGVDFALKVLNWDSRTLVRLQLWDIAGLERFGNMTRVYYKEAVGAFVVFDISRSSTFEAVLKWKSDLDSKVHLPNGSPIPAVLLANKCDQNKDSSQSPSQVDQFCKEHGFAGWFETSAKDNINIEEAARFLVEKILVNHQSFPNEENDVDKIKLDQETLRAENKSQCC
Test: ITC; Nano ITC; VARP constructs at 60 μM in the cell at 4°C, Rab constructs at 300 μM titrated, 24 injections of 2 μl; 50 mM HEPES pH 7.4, 200 mM NaCl, 5 mM MgCl2, 1 mM TCEP
Details: both partners purified
Reported Kd values for the following binders.

Binder: VARP451-640His6 L513D (domain or fragment, human, UniProt Q96NW4 451-640, looked up, source: E. coli Rosetta 2 pLysS, purified; not shown: His6, C-terminal, kept) PSVVTPFSRDDRGHTPLHVAAVCGQASLIDLLVSKGAMVNATDYHGATPLHLACQKGYQSVTDLLLHYKASAEVQDNNGNTPLHLACTYGHEDCVKALVYYDVESCRLDIGNEKGDTPLHIAARWGYQGVIETLLQNGASTEIQNRLKETPLKCALNSKILSVMEAYHLSFERRQKSSEAPVQSPQRSVD
Kd: > 300 µM

Binder: VARP451-640His6 K546D (domain or fragment, human, UniProt Q96NW4 451-640, looked up, also called VARP(K546D); source: E. coli Rosetta 2 pLysS, purified; not shown: His6, C-terminal, kept) PSVVTPFSRDDRGHTPLHVAAVCGQASLIDLLVSKGAMVNATDYHGATPLHLACQKGYQSVTLLLLHYKASAEVQDNNGNTPLHLACTYGHEDCVDALVYYDVESCRLDIGNEKGDTPLHIAARWGYQGVIETLLQNGASTEIQNRLKETPLKCALNSKILSVMEAYHLSFERRQKSSEAPVQSPQRSVD
Kd: ~8 µM

Binder: VARP451-640His6 Y550A (domain or fragment, human, UniProt Q96NW4 451-640, looked up, also called VARP(Y550A); source: E. coli Rosetta 2 pLysS, purified; not shown: His6, C-terminal, kept) PSVVTPFSRDDRGHTPLHVAAVCGQASLIDLLVSKGAMVNATDYHGATPLHLACQKGYQSVTLLLLHYKASAEVQDNNGNTPLHLACTYGHEDCVKALVAYDVESCRLDIGNEKGDTPLHIAARWGYQGVIETLLQNGASTEIQNRLKETPLKCALNSKILSVMEAYHLSFERRQKSSEAPVQSPQRSVD
Kd: ~22 µM

Binder: VARP451-640His6 (first ankyrin repeat domain, ANKRD1), wild type (domain or fragment, human, UniProt Q96NW4 451-640, looked up, VARP (VPS9-domain ankyrin repeat protein); also called VARP ANKRD1; VARP-ANKR domain 1; source: E. coli Rosetta 2 pLysS, purified (GSH-sepharose, PreScission cleavage, Ni-NTA agarose, Superdex 75); not shown: His6, C-terminal, kept) PSVVTPFSRDDRGHTPLHVAAVCGQASLIDLLVSKGAMVNATDYHGATPLHLACQKGYQSVTLLLLHYKASAEVQDNNGNTPLHLACTYGHEDCVKALVYYDVESCRLDIGNEKGDTPLHIAARWGYQGVIETLLQNGASTEIQNRLKETPLKCALNSKILSVMEAYHLSFERRQKSSEAPVQSPQRSVD
Kd: 2.5 µM
